Please respond with reported apparent Kd for every item in the list.
- Tested on: MS2 coat protein
- ASSAY: apparent Kd, MS2 coat protein; higher = weaker binding; RNA-MaP array; FMN 200 µM where present
- TEST PARAMETERS: designed as: OFF switch for flavin mononucleotide; no ligand
Answer as a quantity: numeral, then unit.

Prompt: Can you look up the measured apparent Kd of GAACUGAAGCAUAGCUUUAGUCGUACAUGAGGAUCACCCAUGUAGGAUAUGGUAGGCUUAGCUUACUAGAAGGAUAGAGUGAUC for me?
Completion: 140 nM

Prompt: Entry GCCGGAGCAGGAUAUUCAAUAUCACACAUGAGGAUCACCCAUGUCCAGCGAAAGCUGGAGGGAGAAGGGCUCUGGC : reported apparent Kd = ?
Completion: 70.8 nM

Prompt: Could you share which apparent Kd value was measured for UUUAUUUUGCAAGGAUAUGUUUAAUUUUAGUUUCCUUAUACAUGAGGAUCACCCAUGUUAUACUUACAGAAGGUGCAUAAUUUU ?
Completion: 81.6 nM

Prompt: Requested read-out: apparent Kd. Entry: CGGACGUCAGGAUAUCUGAUGUCUAACUUCGGUUAGACAUCAGAGAAGGGACAUGAGGAUCACCCAUGUCCGAG
Completion: 22.2 nM

Prompt: What value of apparent Kd has been recorded for this entry: CUGACGUCAGGAUAUCUGAUGUCUAACUUCGGUUAGACAUCAGAGAAGGGACAUGAGGAUCACCCAUGUCAGAG
Completion: 28.7 nM

Prompt: Entry UUUUUGUGAGGAUAUCAGUAGUAAAUAAAUAAAAUUACUACUGAGAAGGCACAUGAGGAUCACCCAUGUUCCUU : reported apparent Kd = ?
Completion: 13.7 nM

Prompt: Consider the sequence GCACUGGAUGUAGGAUAUCAGGACGAUAAGUCCUGAGAAGGACAUGAGGAUCACCCAUGUAAACUCUAACCAGUGCAUAAUAUA and give its measured apparent Kd.
Completion: 14 nM

###

- Tested on: MS2 coat protein
- ASSAY: apparent Kd, MS2 coat protein; higher = weaker binding; RNA-MaP array
- TEST PARAMETERS: designed as: OFF switch for flavin mononucleotide; no ligand
Values of apparent Kd greater than or equal to 70 nM map to TRUE; values below map to FALSE.

Prompt: Record UCCCGCUGCACAGGAUAUUGGAAAAUACAUGAGGAUCACCCAUGUGCUUAUAUGAGGUCUGCCUCCAAGAAGGGUGAGAUAAUC ; criterion: apparent Kd no lower than 70 nM. Met?
Completion: TRUE

Prompt: Hello, I need to know if CUUCCACGAGGAUAUCCGUUAACGGACAUGAGGAUCACCCAUGUUAUCCUCACGUCAGCAGGAGAAGGCGUCUCAU has measured apparent Kd not below 70 nM. Thanks!
Completion: FALSE

Prompt: Given the entry UUGCAAUAGUAGAAGGACCACUCAAGUGUGACGGUAGGAUAUACGGUACAUGAGGAUCACCCAUGUGAGACUACAGCCCUCUCC , answer whether its apparent Kd meets or surpasses 70 nM.
Completion: FALSE

Prompt: Is reported apparent Kd greater than or equal to 70 nM here: GCAUGCGGCAAGGAUAUCAAUGCUAUGGUCUAAUGAGAAGGUGCCACAUGAGGAUCACCCAUGUUUCCGGCGAG
Completion: FALSE

Prompt: Form field: apparent Kd at least 70 nM? Entry: UUGCAACAAACAGGAUAUACGCGGACUUCACGGGUAGAAGGGUUCGACCAGGAGAUAUCCCACAUGAGGAUCACCCAUGUCGUC
Completion: TRUE

Prompt: Check the entry UAUAACGAAAGAGGAUAUAUCGGCCGUCUACGGAUAGAAGGCUUUCGCUAUGGCACUGAUGAUCUACAUGAGGAUCACCCAUGU : does apparent Kd equal or exceed 70 nM?
Completion: FALSE

Prompt: Can AAACGGUAAGGAUAUCCACCAGGAUUGGAGCCACCUAAUUCGGAGAAGGUACAUGAGGAUCACCCAUGUCGGGU be said to have apparent Kd at or above 70 nM?
Completion: TRUE

Prompt: Is the recorded value of apparent Kd equal to or greater than 70 nM for this sequence? UUAAAACUAGGAUAUACAUGAGGAUCACCCAUGUGAACACACAAACAAAGAAAAUAAUGUAGAAGGAGACUAUA
Completion: FALSE

Prompt: Is the recorded value of apparent Kd equal to or greater than 70 nM for this sequence? GGGUAACAUGAGGAUCACCCAUGUGAGGAUAUCCAUUGUUGGCGACCGGUACGACCACGGAGAAGGCACAGUUC
Completion: FALSE

Prompt: Is it the case that CGAAAUUCAGUAAGGAUAUUAGGAGGCUCUGCGGCUAAGAAGGUACAUGAGGAUCACCCAUGUGGCACCGCAUG has apparent Kd reaching or exceeding 70 nM?
Completion: FALSE

Prompt: Evaluate UUACGGGAAGGAUAUCAUUGAAGGUACAUGAGGAUCACCCAUGUCUGAUGCGCAUCGCCGUGAGAAGGUCCUGCUU : apparent Kd at minimum 70 nM?
Completion: FALSE

Prompt: Evaluate CCGUUCGCCGAGAAGGGACAGGACUUAAUAGCGUCAGGAUAUCGCGGACCGUGAUUCUAUGACAUGAGGAUCACCCAUGUGCUU : apparent Kd at minimum 70 nM?
Completion: FALSE

Prompt: Has AGGCCCUCACAUGAGGAUCACCCAUGUACGUACGCAGGUGGAAGAAGGCCGGUACAACCUAAUCCGGAGGAUAUUCGAAUUAAC a recorded apparent Kd greater than or equal to 70 nM?
Completion: TRUE

Prompt: Quick check: does UGCACCGCAGGAUAUACAAUGGAGGACGUUGUGAAUCAUAGACAUGAGGAUCACCCAUGUAGAAGGGCGUAUAA have apparent Kd greater than or equal to 70 nM?
Completion: FALSE

###

- Test system: MS2 coat protein
- ASSAY: apparent Kd, MS2 coat protein; higher = weaker binding; RNA-MaP array; FMN 200 µM where present
- TEST PARAMETERS: ligand present: flavin mononucleotide; designed as: OFF switch for flavin mononucleotide
MEASUREMENT TYPE: apparent Kd (nM)
Hi! Could you send only the number? It should be in nM, unit omitted.

Prompt: Return reported apparent Kd; argument: GUUAGACAUGAGGAUCACCCAUGUGAGGAUAUGAUGCGAAUAAAGAAUGAAGUAAGCAUCAGAAGGCACAUAUG
Completion: 381

Prompt: # lookup: apparent Kd of GGGUCAUAUGUUAGGAUAUUGGAGGCAAGUGCCGUUAAGAAGGAACAUGAGGAUCACCCAUGUCUAACUGACUU
Completion: 66

Prompt: # get_value(readout='apparent Kd', item= UUCGAAUUGUAGGAUAUUUUGCCCGAUUGGGCGGGAGAAGGGCAGACAUGAGGAUCACCCAUGUGUCAGGCAGU )
Completion: 40.5

Prompt: # input sequence: CGGUUGCGCUCCUAUGGUUUGAACAUGAGGAUCACCCAUGUACAGGAUAUAGUAAGAACGCCUUACUAGAAGGGUACGUUCUCG ; wanted: its apparent Kd
Completion: 22

Prompt: Quick one: apparent Kd of GCCAGGAUGUGAGGAUAUGCUGAGGAUAACUCAGCAGAAGGCACAUGAGGAUCACCCAUGUAAACUUAUAAUAAAUACCCUGGC ?
Completion: 28.4

Prompt: So what does the record say about apparent Kd for UGAAAUCAUGUAGGAUAUGCAUGGCGAAGCUACGCAGAAGGACAUGAGGAUCACCCAUGUUAUAGCGUCCGAUAAAGGAUGCAA ?
Completion: 139

Prompt: I would be grateful if you could share the reported apparent Kd for GCGGGCCGCGCAGGAUAUACAGGGUACAUGAGGAUCACCCAUGUCCUUGGUGAGAUCAUUUGCCCGUAGAAGGGCGAGGGUCGG .
Completion: 114

###

- System: MS2 coat protein
- ASSAY: apparent Kd, MS2 coat protein; higher = weaker binding; RNA-MaP array; theophylline 2 mM where present
- TEST PARAMETERS: ligand present: theophylline; designed as: OFF switch for theophylline
Give measured apparent Kd for each item. Keep answers brief.
Expressed in nM, but write only the number.

Prompt: Please give the measured apparent Kd for this sequence: GAGGGUGAAUCUCUGGUCCGUUUGACGGAUACCAGCGAGAGGUAUCGCCCUUGGCAGCCGACGACAUGAGGAUCACCCAUGUUAA
Completion: 109

Prompt: // lookup apparent Kd for AUAUGGCGAGAUGAUACCAGACACAUGAGGAUCACCCAUGUUGAUGGUAAGUCUGCAUAUGUCCCUUGGCAGCAUAGCGACAUAU
Completion: 20.8

Prompt: Entry under review: UCAUAUUAGAUAGAUGUAAGGUAUCAUGAUACCAGUAGAUAAUUAUACCCUUGGCAGCAUAACAUGAGGAUCACCCAUGUACAUG . Reported apparent Kd?
Completion: 20.9

Prompt: Given ACAUGAGCAUCAGCCUUGUAGGAACUAGAUACCAGCCCAACAUGAGGCCCUUGGCAGCUGACAACAUGAGGAUCACCCAUGUCAC , state its recorded apparent Kd.
Completion: 34.1

Prompt: What value of apparent Kd has been recorded for this entry: UCCUCCUCCGCAAGGAGGAGGAGUUGCGAUACCAGCACGGCAACGUGCCCUUGGCAGCGCACAUGAGGAUCACCCAUGUCAUGUU
Completion: 24.3

Prompt: What value of measured apparent Kd is listed for GUGGAGACACGAGAUACCAGUCUCUAUAACAUGAGGAUCACCCAUGUAAUGCUCCUCAGGGACCCUUGGCAGCUCAGUAUGAUGA ?
Completion: 134

Prompt: Entry CCUCGACAUGAGGAUCACCCAUGUAGAGAUACCAGCCUGUGAGAUGGCCCUUGGCAGCUCAUAUAGGGUACAGGAGUCGUUUUGA : reported apparent Kd = ?
Completion: 85.1
